Reference source: ChEMBL document CHEMBL3885861

# maps each entry to its Mono
- Species on record: Rattus norvegicus
- Assay info: Open TG-GATES - Regimen: Single
- Type: toxicity, organism-based, Sprague-Dawley
- Set-up: regimen Single, gender Male, age 6 weeks
- Stated conditions: in vivo, po, 1000 mg/kg, 3 h, tissue Blood, route gavage, dose level High
Result type: Mono (%)

>  <Compound>
CCc1cc(C(N)=S)ccn1 [ETHIONAMIDE]

>  <Unit descriptor>
%

>  <Endpoint value>
8.4

$$$$
>  <Compound>
C[C@H](CS)C(=O)N1CCC[C@H]1C(=O)O

>  <Unit descriptor>
%

>  <Endpoint value>
5.6

$$$$
>  <Compound>
O=C(O)c1cn(C2CC2)c2cc(N3CCNCC3)c(F)cc2c1=O

>  <Unit descriptor>
%

>  <Endpoint value>
6.6

$$$$
>  <Compound>
Clc1ccccc1CN1CCc2sccc2C1

>  <Unit descriptor>
%

>  <Endpoint value>
2.8

$$$$
>  <Compound>
O=C(O)c1cc(/N=N/c2ccc(S(=O)(=O)Nc3ccccn3)cc2)ccc1O

>  <Unit descriptor>
%

>  <Endpoint value>
2.8

$$$$

* * *

- Species: Rattus norvegicus
- Assay info: Open TG-GATES - Regimen: Daily Repeat
- Assay type: toxicity, organism-based, Sprague-Dawley
- Design: regimen Daily Repeat, gender Male, age 6 weeks
- Stated conditions: in vivo, po, 0 mg/kg, 72 h, tissue Kidney, route gavage, dose level Control, time 3 day
# maps each entry to its KIDNEY_TOTAL

>  <Molecule>
CO[C@H]1/C=C/O[C@@]2(C)Oc3c(C)c(O)c4c(O)c(c(/C=N/N5CCN(C)CC5)c(O)c4c3C2=O)NC(=O)/C(C)=C\C=C\[C@H](C)[C@H](O)[C@@H](C)[C@@H](O)[C@@H](C)[C@H](OC(C)=O)[C@@H]1C

>  <KIDNEY_TOTAL, g>
2

$$$$
>  <Molecule>
COc1ccc2c(c1)c(CC(=O)O)c(C)n2C(=O)c1ccc(Cl)cc1

>  <KIDNEY_TOTAL, g>
2.1

$$$$
>  <Molecule>
CCc1cc(C(N)=S)ccn1 [ETHIONAMIDE]

>  <KIDNEY_TOTAL, g>
2.3

$$$$
>  <Molecule>
C[C@H](CS)C(=O)N1CCC[C@H]1C(=O)O

>  <KIDNEY_TOTAL, g>
2.2

$$$$
>  <Molecule>
Cn1c(=O)c2[nH]cnc2n(C)c1=O.O

>  <KIDNEY_TOTAL, g>
2.2

$$$$
>  <Molecule>
NC(=O)N1c2ccccc2C=Cc2ccccc21 [CARBAMAZEPINE]

>  <KIDNEY_TOTAL, g>
2.2

$$$$
>  <Molecule>
COc1ccc(Cc2nccc3cc(OC)c(OC)cc23)cc1OC

>  <KIDNEY_TOTAL, g>
2

$$$$
>  <Molecule>
CC(=O)Oc1ccccc1C(=O)O

>  <KIDNEY_TOTAL, g>
2.1

$$$$
>  <Molecule>
Clc1ccccc1CN1CCc2sccc2C1

>  <KIDNEY_TOTAL, g>
2.1

$$$$

* * *

- Organism: Rattus norvegicus
- Assay info: Open TG-GATES - Regimen: Daily Repeat
- Format: toxicity, organism-based, Sprague-Dawley
- Design: regimen Daily Repeat, gender Male, age 6 weeks
- Stated conditions: in vivo, po, 0 mg/kg, […], route gavage, dose level Control, time 14 day
# maps each entry to its TERMINAL_BW

>  <Molecule>
CCc1cc(C(N)=S)ccn1 [ETHIONAMIDE]

>  <Unit descriptor>
g

>  <TERMINAL_BW>
326.8

$$$$
>  <Molecule>
COc1ccc(Cc2nccc3cc(OC)c(OC)cc23)cc1OC

>  <Unit descriptor>
g

>  <TERMINAL_BW>
326.9

$$$$
>  <Molecule>
CSc1ccc2c(c1)N(CCC1CCCCN1C)c1ccccc1S2 (stereo unspecified)

>  <Unit descriptor>
g

>  <TERMINAL_BW>
326.5

$$$$
>  <Molecule>
Cn1c(=O)c2[nH]cnc2n(C)c1=O.O

>  <Unit descriptor>
g

>  <TERMINAL_BW>
330.3

$$$$
>  <Molecule>
CC(=O)Oc1ccccc1C(=O)O

>  <Unit descriptor>
g

>  <TERMINAL_BW>
324.4

$$$$
>  <Molecule>
O=C(O)c1cc(/N=N/c2ccc(S(=O)(=O)Nc3ccccn3)cc2)ccc1O

>  <Unit descriptor>
g

>  <TERMINAL_BW>
308.2

$$$$
